Data credit: patent US20240360227A1

This section presents binders with their documented koff values.
# target.under.test: Recombinant human his-tagged IGF R extracellular domain protein (human) (UniProt P08069)
# protocol.details: SPR, Ab captured via anti-huIgG Fc, pH 7.4
Your answer should be a plain number; it is taken to be in s⁻¹.

[ask] What measured koff goes with VRDN-02063 (antibody, V domains shown) VH: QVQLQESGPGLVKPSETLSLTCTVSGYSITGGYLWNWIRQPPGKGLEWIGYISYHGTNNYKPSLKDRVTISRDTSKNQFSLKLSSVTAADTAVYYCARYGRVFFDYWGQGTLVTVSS VL: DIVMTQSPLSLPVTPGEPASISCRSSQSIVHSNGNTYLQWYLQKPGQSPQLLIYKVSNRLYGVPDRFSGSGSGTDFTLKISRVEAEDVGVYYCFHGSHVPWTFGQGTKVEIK ?
[reply] 2.11e-05

[ask] // query koff value for entry VRDN-02060 (antibody, V domains shown) VH: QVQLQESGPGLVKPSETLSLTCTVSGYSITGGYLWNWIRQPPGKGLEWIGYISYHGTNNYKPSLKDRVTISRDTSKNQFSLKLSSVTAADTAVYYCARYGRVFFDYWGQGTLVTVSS VL: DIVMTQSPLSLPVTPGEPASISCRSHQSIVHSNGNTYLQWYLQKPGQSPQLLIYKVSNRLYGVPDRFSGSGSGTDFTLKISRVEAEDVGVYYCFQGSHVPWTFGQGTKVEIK
[reply] 2.77e-05

[ask] // query koff value for entry VRDN-02075 (antibody, V domains shown) VH: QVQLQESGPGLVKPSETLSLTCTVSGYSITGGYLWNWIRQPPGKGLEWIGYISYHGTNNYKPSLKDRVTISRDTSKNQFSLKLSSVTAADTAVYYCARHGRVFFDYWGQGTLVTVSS VL: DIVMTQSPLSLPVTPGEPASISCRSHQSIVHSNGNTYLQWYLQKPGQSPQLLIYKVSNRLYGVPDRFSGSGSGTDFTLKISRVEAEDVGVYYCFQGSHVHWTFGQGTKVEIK
[reply] 2.76e-05
